target: Human PD-L1/PD-1 (Homo sapiens, UniProt Q9NZQ7); construct: made in house; host or cells: HEK293T; assay: HTRF PD-1-Ig/PD-L1-His binding assay (human PD-L1); details: cluster symbol; read-out: HTRF IC50 cluster
Sequence (Q9NZQ7 with tags, fused parts or gaps): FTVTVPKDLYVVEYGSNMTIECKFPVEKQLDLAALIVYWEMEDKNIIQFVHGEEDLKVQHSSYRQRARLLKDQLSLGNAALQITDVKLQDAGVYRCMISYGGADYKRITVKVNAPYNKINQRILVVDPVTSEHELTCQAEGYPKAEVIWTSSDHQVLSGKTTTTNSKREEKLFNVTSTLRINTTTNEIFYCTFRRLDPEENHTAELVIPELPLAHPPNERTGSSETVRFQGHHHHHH
pIC50: −log10 of the molar value. Positions of bridges follow the written chain, without caps; N, C: chain ends. Non-standard residues stand in square brackets, D forms with d. Residues, ends and D or L forms follow the SMILES beside them. Hyp = O=C(O)[C@@H]1C[C@@H](O)CN1; NMeNle = CCCC[C@H](NC)C(=O)O; NMeA = CN[C@@H](C)C(=O)O; Dab = NCC[C@H](N)C(=O)O; Dap = NC[C@H](N)C(=O)O
property_measured: pIC50

>>> obs_value("CCCC[C@H]1C(=O)N(C)[C@@H](CCCC)C(=O)N[C@@H](CO)C(=O)N[C@H](C(=O)NCC(N)=O)CSCC(=O)N[C@@H](Cc2ccc(O)cc2)C(=O)N(C)[C@@H](C)C(=O)N[C@@H](CC(N)=O)C(=O)N2CCC[C@H]2C(=O)N[C@@H](Cc2c[nH]cn2)C(=O)N[C@@H](CCC(N)=O)C(=O)N2C[C@H](O)C[C@H]2C(=O)N[C@@H](Cc2c[nH]c3ccccc23)C(=O)N[C@@H](CO)C(=O)N[C@@H](Cc2c[nH]c3ccccc23)C(=O)N1C [Example 5121] ({CH2CO}-Y[NMeA]NPHQ[Hyp]WSW[NMeNle][NMeNle]SCG-NH2; thioether N-14)")
"7.52 to 8.17"

Attention now turns to another entry.
I looked up CCCC[C@H]1C(=O)N(C)[C@@H](CCCC)C(=O)N[C@@H](CCN)C(=O)N[C@H](C(=O)NCC(N)=O)CSCC(=O)N[C@@H](Cc2ccc(O)cc2)C(=O)N(C)[C@@H](C)C(=O)N[C@@H](CC(N)=O)C(=O)N2CCC[C@H]2C(=O)N[C@@H](CN)C(=O)N[C@@H](CCC(N)=O)C(=O)N2C[C@H](O)C[C@H]2C(=O)N[C@@H](Cc2c[nH]c3ccccc23)C(=O)N[C@@H](CO)C(=O)N[C@@H](Cc2c[nH]c3ccccc23)C(=O)N1C [Example 5042] ({CH2CO}-Y[NMeA]NP[Dap]Q[Hyp]WSW[NMeNle][NMeNle][Dab]CG-NH2; thioether N-14) and its pIC50 for Human PD-L1/PD-1 (Homo sapiens, UniProt Q9NZQ7) was 8.17 to 9.41

====

# key: entry, value: IC50
target: Human PD-L1/PD-1 (Homo sapiens, UniProt Q9NZQ7); construct: made in house; host or cells: HEK293T; experiment: HTRF PD-1-Ig/PD-L1-His binding assay (human PD-L1); details: cluster symbol; read-out: HTRF IC50 cluster
Positions of bridges follow the written chain, without caps; N, C: chain ends. Non-standard residues stand in square brackets, D forms with d. Residues, ends and D or L forms follow the SMILES beside them. ξ: configuration not given here. Phe(2-Me) = Cc1ccccc1C[C@H](N)C(=O)O; Hyp = O=C(O)[C@@H]1C[C@@H](O)CN1; NMeF = CN[C@@H](Cc1ccccc1)C(=O)O; 3Pal = N[C@@H](Cc1cccnc1)C(=O)O; NMeNle = CCCC[C@H](NC)C(=O)O; NMeM = CN[C@@H](CCSC)C(=O)O; NMeA = CN[C@@H](C)C(=O)O; ξC = NC(CS)C(=O)O; Sar = CNCC(=O)O

>>> obs_value("CCCC[C@H]1C(=O)N(C)[C@@H](CCCC)C(=O)N[C@@H](C)C(=O)N[C@H](C(=O)NCC(N)=O)CSCC(=O)N[C@@H](Cc2ccc(O)cc2)C(=O)N(C)[C@@H](C)C(=O)N[C@@H](CCC(=O)O)C(=O)N2CCC[C@H]2C(=O)N[C@@H](Cc2cnc[nH]2)C(=O)N[C@@H](CC(C)C)C(=O)N2CCC[C@H]2C(=O)N[C@@H](Cc2c[nH]c3ccccc23)C(=O)N[C@@H](CO)C(=O)N[C@@H](Cc2c[nH]c3ccccc23)C(=O)N1C [Example 1164] ({CH2CO}-Y[NMeA]EPHLPWSW[NMeNle][NMeNle]ACG-NH2; thioether N-14)")
"6.76 to 30.3 nM"
>>> obs_value("CCCC[C@H]1C(=O)N(C)[C@@H](COc2cccc(C)c2)C(=O)N[C@@H](CCN)C(=O)N[C@H](C(=O)NCC(N)=O)CSCC(=O)N[C@@H](Cc2ccc(O)cc2)C(=O)N(C)[C@@H](C)C(=O)N[C@@H](CC(N)=O)C(=O)N2CCC[C@H]2C(=O)N[C@@H](CN)C(=O)N[C@@H](CCC(=O)O)C(=O)N2C[C@H](O)C[C@H]2C(=O)N[C@@H](Cc2c[nH]c3ccccc23)C(=O)N[C@@H](CO)C(=O)N[C@@H](Cc2c[nH]c3ccccc23)C(=O)N1C")
"0.385 to 6.74 nM"
>>> obs_value("CCCC[C@H]1C(=O)N(C)[C@@H](CCSC)C(=O)N[C@@H](CCCNC(=N)N)C(=O)NC(C(=O)NCC(N)=O)CSCC(=O)N[C@@H](Cc2ccc(O)cc2)C(=O)N(C)[C@@H](C)C(=O)N[C@@H](CC(N)=O)C(=O)N2CCC[C@H]2C(=O)N[C@@H](Cc2cnc[nH]2)C(=O)N[C@@H](CC(C)C)C(=O)N2CCC[C@H]2C(=O)N[C@@H](Cc2c[nH]c3ccccc23)C(=O)N[C@@H](CO)C(=O)N[C@@H](Cc2c[nH]c3ccccc23)C(=O)N1C (some centres unmarked) [Example 9030] ({CH2CO}-Y[NMeA]NPHLPWSW[NMeNle][NMeM]R[ξC]G-NH2; thioether N-14)")
"0.385 to 6.74 nM"
>>> obs_value("CCCC[C@H]1C(=O)N(C)[C@@H](CCCC)C(=O)N[C@@H](C)C(=O)N[C@H](C(=O)NCC(N)=O)CSCC(=O)N[C@@H](Cc2ccc(O)cc2)C(=O)N(C)[C@@H](C)C(=O)N[C@@H](CC(=O)O)C(=O)N2CCC[C@H]2C(=O)N[C@@H](Cc2cnc[nH]2)C(=O)N[C@@H](CC(C)C)C(=O)N2CCC[C@H]2C(=O)N[C@@H](Cc2c[nH]c3ccccc23)C(=O)N[C@@H](CO)C(=O)N[C@@H](Cc2c[nH]c3ccccc23)C(=O)N1C [Example 1121] ({CH2CO}-Y[NMeA]DPHLPWSW[NMeNle][NMeNle]ACG-NH2; thioether N-14)")
"6.76 to 30.3 nM"
>>> obs_value("CCCC[C@H]1C(=O)N(C)CC(=O)N[C@@H](CC(=O)O)C(=O)N[C@@H](C(C)C)C(=O)N(C)[C@@H](Cc2ccccc2)C(=O)N[C@@H](Cc2ccc(O)cc2)C(=O)N(C)CC(=O)N[C@@H](Cc2c[nH]c3ccccc23)C(=O)N[C@@H](Cc2ccc(O)cc2)C(=O)N[C@@H](CC(C)C)C(=O)N[C@H](C(=O)NCC(N)=O)CSCC(=O)N[C@@H](Cc2ccccc2C)C(=O)N(C)[C@@H](Cc2ccccc2)C(=O)N1C [Example 3105] ({CH2CO}-[Phe(2-Me)][NMeF][NMeNle][Sar]DV[NMeF]Y[Sar]WYLCG-NH2; thioether N-13)")
"> 30.5 nM"
>>> obs_value("CCCC[C@H]1C(=O)N(C)[C@@H](CCCC)C(=O)N[C@@H](CC(C)C)C(=O)N[C@H](C(=O)NCC(N)=O)CSCC(=O)N[C@@H](Cc2ccc(O)cc2)C(=O)N(C)[C@@H](C)C(=O)N[C@@H](CC(N)=O)C(=O)N2CCC[C@H]2C(=O)N[C@@H](CO)C(=O)N[C@@H](CCC(N)=O)C(=O)N2C[C@H](O)C[C@H]2C(=O)N[C@@H](Cc2c[nH]c3ccccc23)C(=O)N[C@@H](CO)C(=O)N[C@@H](Cc2c[nH]c3ccccc23)C(=O)N1C [Example 5115] ({CH2CO}-Y[NMeA]NPSQ[Hyp]WSW[NMeNle][NMeNle]LCG-NH2; thioether N-14)")
"0.385 to 6.74 nM"

Entry under test: CCCC[C@H]1C(=O)N(C)[C@@H](CCCC)C(=O)N[C@@H](CCCNC(=N)N)C(=O)N[C@H](C(=O)NCC(=O)NCC(N)=O)CSCC(=O)N[C@@H](Cc2ccc(O)cc2)C(=O)N(C)[C@@H](C)C(=O)N[C@@H](CC(N)=O)C(=O)N2CCC[C@H]2C(=O)N[C@@H](Cc2cnc[nH]2)C(=O)N[C@@H](CC(C)C)C(=O)N2CCC[C@H]2C(=O)N[C@@H](Cc2c[nH]c3ccccc23)C(=O)N[C@@H](CO)C(=O)N[C@@H](Cc2c[nH]c3ccccc23)C(=O)N1C [Example 6018] ({CH2CO}-Y[NMeA]NPHLPWSW[NMeNle][NMeNle]RCGG-NH2; thioether N-14) . Its IC50 was 0.385 to 6.74 nM

Entry under test: CCCC[C@H]1C(=O)N(C)CC(=O)N[C@@H](CC(=O)O)C(=O)N[C@@H](C(C)C)C(=O)N(C)[C@@H](Cc2ccccc2)C(=O)N[C@@H](Cc2ccc(O)cc2)C(=O)N(C)CC(=O)N[C@@H](Cc2c[nH]c3ccccc23)C(=O)N[C@@H](Cc2ccc(O)cc2)C(=O)N[C@@H](CC(C)C)C(=O)N[C@H](C(=O)NCC(N)=O)CSCC(=O)N[C@@H](Cc2ccccc2)C(=O)N[C@@H](Cc2cccnc2)C(=O)N1C [Example 3602] ({CH2CO}-F[3Pal][NMeNle][Sar]DV[NMeF]Y[Sar]WYLCG-NH2; thioether N-13) . Its IC50 was 6.76 to 30.3 nM
